# target_system: cellular IDO1 in HeLa cells (Homo sapiens (Human))
# Sequence (P14902 whole entry): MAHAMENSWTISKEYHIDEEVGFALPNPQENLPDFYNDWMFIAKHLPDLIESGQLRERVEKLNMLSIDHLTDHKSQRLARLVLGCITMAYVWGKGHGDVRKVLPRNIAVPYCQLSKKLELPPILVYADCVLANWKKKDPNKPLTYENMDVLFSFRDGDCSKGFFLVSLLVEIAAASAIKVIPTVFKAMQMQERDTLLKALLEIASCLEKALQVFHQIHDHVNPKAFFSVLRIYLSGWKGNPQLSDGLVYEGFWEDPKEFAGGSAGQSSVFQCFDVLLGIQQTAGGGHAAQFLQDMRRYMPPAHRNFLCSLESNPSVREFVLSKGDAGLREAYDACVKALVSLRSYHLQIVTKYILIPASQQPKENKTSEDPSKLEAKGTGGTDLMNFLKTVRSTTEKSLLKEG
# assay_name: HeLa Cell-Based IDO1 Kyn (Kynurenine) Production Assay
# experimental_conditions: IFN-γ induced IDO1, 48 hours incubation, Kyn absorbance at 480 nm

{"molecule": "Clc1cccc2[nH]c(C[C@H]3CC[C@@H](c4ccccc4)CC3)nc12 [Example A35]", "EC50": "107 nM"}
{"molecule": "C[C@@H](c1nc2cc(C(F)(F)F)ccc2[nH]1)[C@H]1CC[C@@H](c2ccnc3ccc(F)cc32)CC1 [Example B4]", "EC50": "1.4 nM"}
{"molecule": "COC(=O)c1ccc2[nH]c(CC3CCC(c4ccnc5ccc(F)cc45)CC3)nc2c1 (stereo not drawn) [Example A13]", "EC50": "8.4 nM"}
{"molecule": "CC(c1nc2c(ccc3ccccc32)[nH]1)[C@H]1CC[C@@H](c2ccnc3ccc(F)cc32)CC1 (stereo partly drawn) [B175]", "EC50": "1.7 nM"}
{"molecule": "CC(C)c1ccc2[nH]c(C[C@H]3CC[C@H](c4ccnc5ccc(F)cc54)CC3)nc2c1 [Example A5a]", "EC50": "184 nM"}
{"molecule": "COc1cc2nc(CC3CCC(c4ccnc5ccc(F)cc45)CC3)[nH]c2cc1Br (stereo not drawn) [Example A17]", "EC50": "5 nM"}
